experiment summary: Probe fluorescence ratio response to stearic acid relative to ADIFAB2
Type: binding
details: response relative to ADIFAB2
Mark 1 (yes) for DR/DR SA under 0.4, 0 (no) if at or over.

Below are worked cases with known answers.
72G 73W 74E (protein, listed as Rattus norvegicus, PEPTIDE (1)...(131) wild-type rat intestinal fatty acid binding protein) AFDGTWKVDRNENYEKFMEKMGINVVKRKLGAHDNLKLTITQEGNKFTVKESSNFRNIDVVFELGVDFAYSGWEGTELTGTWTMEGNKLVGKFKRVDNGKELIAVREISGNELIQTYTYEGVEAKRIFKKE :: 0 (no)
14A 18Y 31W 73G 117V 72A (protein, listed as Rattus norvegicus, PEPTIDE (1)...(131) wild-type rat intestinal fatty acid binding protein) AFDGTWKVDRNENAEKFYEKMGINVVKRKLWAHDNLKLTITQEGNKFTVKESSNFRNIDVVFELGVDFAYSAGDGTELTGTWTMEGNKLVGKFKRVDNGKELIAVREISGNELIQTVTYEGVEAKRIFKKE :: 1 (yes)
14R 18L 31S 73F 117E 72A (protein, listed as Rattus norvegicus, PEPTIDE (1)...(131) wild-type rat intestinal fatty acid binding protein) AFDGTWKVDRNENREKFLEKMGINVVKRKLSAHDNLKLTITQEGNKFTVKESSNFRNIDVVFELGVDFAYSAFDGTELTGTWTMEGNKLVGKFKRVDNGKELIAVREISGNELIQTETYEGVEAKRIFKKE :: 1 (yes)
18I 31V 55V 73V 72A (protein, listed as Rattus norvegicus, PEPTIDE (1)...(131) wild-type rat intestinal fatty acid binding protein) AFDGTWKVDRNENYEKFIEKMGINVVKRKLVAHDNLKLTITQEGNKFTVKESSNVRNIDVVFELGVDFAYSAVDGTELTGTWTMEGNKLVGKFKRVDNGKELIAVREISGNELIQTYTYEGVEAKRIFKKE :: 1 (yes)

Alright, here's another molecule for you.
Is DR/DR SA strictly under 0.4 for the entry 38Q 62I 106I 117A 72A (protein, listed as Rattus norvegicus, PEPTIDE (1)...(131) wild-type rat intestinal fatty acid binding protein) AFDGTWKVDRNENYEKFMEKMGINVVKRKLGAHDNLKQTITQEGNKFTVKESSNFRNIDVVIELGVDFAYSAADGTELTGTWTMEGNKLVGKFKRVDNGKELIAVIEISGNELIQTATYEGVEAKRIFKKE ?
0 (no)

Data provenance: patent US20060257938A1
